- Tested on: NCI-H522 lung
- test protocol: NCI tumour cell line growth inhibition, 48 h
Collected TGI values appear next to each entry.

// worked examples, TGI included
O=C(O)CS(=O)(=O)C(c1ccccc1)c1ccccc1 : > 100 µM
CC1=C/C(=N\OCC(=O)O)CC(c2ccc(C(C)C)cc2)C1 (configuration not stated) : 79.1 µM
O=c1[nH]c(=O)n(C2OC(CO)C(O)C(F)C2O)cc1F (configuration not stated) : > 100 µM
O=S1(=O)c2cnccc2NC(=NCc2cccc3ccccc23)N1c1ccccc1 : > 100 µM
C=C1C(=O)OC2CC3(C)C=CC(=O)C(=C)C3CC12 (configuration not stated) : 1.69 µM

Field TGI (entry c1csc(-c2cscc2-c2ccsc2)c1 ) reads > 100 µM

Measured TGI of CC(C)(C(=O)NN)c1ccccc1 : > 100 µM
